Target Entity: Neuraminidase (Influenza A virus, UniProt B4URF0)
Sequence (B4URF0 whole entry): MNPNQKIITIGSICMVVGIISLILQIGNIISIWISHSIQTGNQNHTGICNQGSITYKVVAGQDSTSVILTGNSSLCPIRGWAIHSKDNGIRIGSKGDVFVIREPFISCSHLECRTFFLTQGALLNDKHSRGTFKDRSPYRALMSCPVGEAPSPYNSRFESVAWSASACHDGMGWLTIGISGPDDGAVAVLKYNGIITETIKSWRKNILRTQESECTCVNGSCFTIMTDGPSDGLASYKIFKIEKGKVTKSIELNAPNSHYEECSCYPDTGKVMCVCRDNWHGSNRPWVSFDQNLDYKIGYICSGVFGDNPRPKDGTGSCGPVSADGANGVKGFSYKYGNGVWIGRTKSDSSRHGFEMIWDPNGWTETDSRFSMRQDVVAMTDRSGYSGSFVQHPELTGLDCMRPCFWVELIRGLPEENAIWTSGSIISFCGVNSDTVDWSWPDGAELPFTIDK
Assay: Inhibition of Influenza A virus (A/Anhui/1/2013 (H7N9) neuraminidase expressed by HEK293 cells incubated for 1 hr using 4-MU-NANA substrate by spectrofluorometric assay
Format: cell-based
Conditions Used: read-out: IC50
pIC50 by entry:
# reply with the number alone; pIC50 is -log10 of concentration in mol/L

Consider the worked cases shown below.
- CCCC(=O)c1c(O)c(C=O)c(O)c(Cc2c(O)c(C=O)c(O)c(C(=O)CCC)c2O)c1O: 5.60
- CCCC(=O)c1c(O)cc(O)c(CC2=C(O)C(C)(C)C(O)=C(C(C)=O)C2=O)c1O: 5.80

Now look at this entry.
Which measured pIC50 value corresponds to `CCCC(=O)c1c(O)c(CC2=C(O)C(C)(C)C(O)=C(C(C)=O)C2=O)c(O)c(Cc2c(O)c(CC3=C(O)C(C)(C)C(O)=C(C(C)=O)C3=O)c(O)c(C(=O)CCC)c2O)c1O` ?
5.44
